The entries below come with measured pKd values attached.
Target: T1, HCoV-OC43 Nucleocapsid (N) protein (2X-StrepTag tagged) (HCoV-OC43, UniProt P33469 1-448)
T1 construct: also called rN; HCoV-OC43 rN; source: HEK293-FT, transfected, in crude lysate; not shown: 2X-StrepTag, C-terminal, kept
T1 sequence: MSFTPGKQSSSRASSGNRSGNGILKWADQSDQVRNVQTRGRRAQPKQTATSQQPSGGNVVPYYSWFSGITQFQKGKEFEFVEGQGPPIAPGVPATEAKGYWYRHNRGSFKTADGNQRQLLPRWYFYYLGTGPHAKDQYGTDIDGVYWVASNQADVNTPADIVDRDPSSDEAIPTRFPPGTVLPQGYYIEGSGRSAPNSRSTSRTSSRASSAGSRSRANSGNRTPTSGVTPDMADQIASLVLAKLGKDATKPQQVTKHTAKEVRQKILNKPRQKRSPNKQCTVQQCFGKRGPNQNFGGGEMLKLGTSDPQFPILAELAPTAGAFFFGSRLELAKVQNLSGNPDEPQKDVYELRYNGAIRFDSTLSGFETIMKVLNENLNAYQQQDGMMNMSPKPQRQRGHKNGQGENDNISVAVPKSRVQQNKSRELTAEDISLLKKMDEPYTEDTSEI
Experiment: BLI
Details: one partner purified
pKd: −log10 of the molar value.
endpoint: pKd

>  <binder>
CXCL9 (ligand, recombinant human CXCL9; source: bought: PeproTech) TPVVRKGRCSCISTNQGTIHLQSLKDLKQFAPSPSCEKIEIIATLKNGVQTCLNPDSADVKELIKKWEKQVSQKKKQKNGKKHQKKKVLKVRKSQRSRQKKTT

>  <endpoint>
pKd

>  <reading>
7.54

$$$$
>  <binder>
CXCL11 (ligand, recombinant human CXCL11; source: bought: PeproTech) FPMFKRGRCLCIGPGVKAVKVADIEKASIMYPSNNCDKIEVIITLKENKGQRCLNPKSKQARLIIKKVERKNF

>  <endpoint>
pKd

>  <reading>
6.14

$$$$
>  <binder>
CCL25 (ligand, recombinant human CCL25; source: bought: PeproTech) QGVFEDCCLAYHYPIGWAVLRRAWTYRIQEVSGSCNLPAAIFYLPKRHRKVCGNPKSREVQRAMKLLDARNKVFAKLHHNTQTFQAGPHAVKKLSSGNSKLSSSKFSNPISSSKRNVSLLISANSGL

>  <endpoint>
pKd

>  <reading>
6.21

$$$$
>  <binder>
CCL28 (ligand, recombinant human CCL28; source: bought: PeproTech) SEAILPIASSCCTEVSHHISRRLLERVNMCRIQRADGDCDLAAVILHVKRRRICVSPHNHTVKQWMKVQAAKKNGKGNVCHRKKHHGKRNSNRAHQGKHETYGHKTPY

>  <endpoint>
pKd

>  <reading>
7.57

$$$$
>  <binder>
CXCL13 (ligand, recombinant human CXCL13; source: bought: PeproTech) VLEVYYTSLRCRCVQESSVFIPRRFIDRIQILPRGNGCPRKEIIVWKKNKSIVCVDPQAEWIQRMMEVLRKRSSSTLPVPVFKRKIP

>  <endpoint>
pKd

>  <reading>
6.85

$$$$
>  <binder>
CXCL14 (ligand, recombinant human CXCL14; source: bought: PeproTech) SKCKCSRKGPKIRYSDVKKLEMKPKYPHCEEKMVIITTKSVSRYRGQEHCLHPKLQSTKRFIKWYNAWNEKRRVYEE

>  <endpoint>
pKd

>  <reading>
6.24

$$$$
>  <binder>
CCL21 (ligand, recombinant human CCL21; source: bought: PeproTech) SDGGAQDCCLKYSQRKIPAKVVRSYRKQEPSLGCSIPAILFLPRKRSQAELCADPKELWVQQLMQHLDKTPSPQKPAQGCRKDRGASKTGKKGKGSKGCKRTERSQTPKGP

>  <endpoint>
pKd

>  <reading>
6.54

$$$$
>  <binder>
CCL5 (ligand, recombinant human CCL5; source: bought: PeproTech) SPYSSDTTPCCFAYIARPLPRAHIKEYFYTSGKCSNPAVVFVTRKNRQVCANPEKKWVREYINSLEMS

>  <endpoint>
pKd

>  <reading>
4.25

$$$$
>  <binder>
CCL26 (ligand, recombinant human CCL26; source: bought: PeproTech) TRGSDISKTCCFQYSHKPLPWTWVRSYEFTSNSCSQRAVIFTTKRGKKVCTHPRKKWVQKYISLLKTPKQL

>  <endpoint>
pKd

>  <reading>
6.21

$$$$
